Overview of recorded growth for various compounds
tested on: COLO 205 colon; assay: NCI-60 one-dose screen, 48 h (100 = growth as untreated, 0 = no growth, -100 = all killed); conditions: 10 µM unless noted
This is part of a sample that, as a whole, favours compounds with a hit. Of some 83,000 tested, about 20% had one in any assay. Activity calls are given as the source filed them. The calls were made as follows: active = growth percent below 10; inactive = the rest.

[ask] Retrieve growth measured for `COc1cc(Nc2nc(NCCN)nc3cc[nH]c(=O)c23)cc(OC)c1` and print it.
[reply] 55.3% (inactive)

[ask] Report growth for `Cc1nc2ccccc2n1CC1C(=O)NC(=O)NC1=O`
[reply] 115% (inactive)

[ask] Give growth for O=CN1N=C(c2ccc(Nc3ccnc4cc(Cl)ccc34)cc2)CC1c1ccccc1 (stereo not given)
[reply] 55.2% (inactive)

[ask] Please indicate growth recorded for `Cc1cccc(NCc2cn(-c3ccc(C(=O)O)cc3)nc2-c2ccc(C(=O)O)cc2)n1`
[reply] 111% (inactive)

[ask] Write down growth measured for item `COc1ccc(CNC(=O)[C@H](O)[C@@H](N)Cc2ccccc2)cc1`
[reply] 114% (inactive)

[ask] Specify growth for `O=C(N/N=C/[C@H](O)[C@H](O)[C@H](O)CO)c1ccc(NC(=O)c2cccnc2)cc1` and stop.
[reply] 112% (inactive)

[ask] Consider the compound `COc1nc2ccccc2cc1-c1nc2c(cnn2-c2ccccc2)c(=O)[nH]1` and give its recorded growth.
[reply] 32.6% (inactive)

[ask] Supply reported growth belonging to this compound: `O=C(Nc1ccc(Br)cc1F)c1cc(Br)ccc1O`
[reply] 85.6% (inactive)

[ask] Give the measured growth for `N#Cc1ccc(NC(=O)c2sc3nc4c(cc3c2N)C(=O)CCC4)cc1`
[reply] 109% (inactive)

[ask] Output measured growth for this item: `O=c1ccc(N=Nc2ccc([N+](=O)[O-])cc2)ccc1O`
[reply] 16.7% (inactive)
